Cited source for all entries: ChEMBL document CHEMBL1201862

Tested on: NCI-H522
Test: NCI tumour cell line growth inhibition, 48 h
Active and inactive are the calls of the source. No stated cut-off is given here; in the data, active = GI50 up to about 1.1 µM and inactive = higher.
property.name: GI50

In the examples that follow, each entry is paired with its recorded GI50.
Looking up O=C(Nc1ccc(Cl)cc1Cl)C1C(=O)OC2(CCCCC2)OC1=O , I found its GI50 recorded as 12 µM (inactive)

Looking up CCOC(=O)/C(C#N)=C(O)/C(=C/c1ccccc1Cl)NC(=O)c1ccccc1 , I found its GI50 recorded as 0.0195 µM (active)

Looking up O=C(Oc1cccnc1)c1cc2cc(CCl)ccc2oc1=O , I found its GI50 recorded as 17 µM (inactive)

Now turn to the next compound.
Looking up COC1CCC2C(=O)CCCC2O1 (centres undefined) , I found its GI50 recorded as > 100 µM (inactive)

----------
System: UACC-62
Experiment: NCI tumour cell line growth inhibition, 48 h
Activity calls are given as the source filed them. Rule as the data show it: active = GI50 up to about 1.1 µM and inactive = higher.
Respond using exactly one of the listed classes: True = active, False = inactive

Prompt: Would you mind telling me which call this test gave Cc1ccc(/C=C/C(=O)c2ccc(Cl)c(Cl)c2)cc1 ?
Completion: False

----------
System: SN12C
Experiment: NCI tumour cell line growth inhibition, 48 h
Active and inactive are the calls of the source. Cut-off read from the data, not from the text of the source: active = GI50 up to about 1.1 µM and inactive = higher.
Recorded GI50, one value per entry.

Looking up CC(C)(C)c1ccc(-c2nnc(SCc3ccc(Cl)cc3)n2-c2cccc(C(F)(F)F)c2)cc1 , I found its GI50 recorded as 4.24 µM (inactive)

Looking up O=C1c2c(c3c4ccccc4n4c3c3c2c2ccccc2n3C/C=C\C4)C(=O)N1Cc1ccccc1 , I found its GI50 recorded as > 100 µM (inactive)

Looking up C=CCOC(=O)Cn1cnc2c(N)ncnc21 , I found its GI50 recorded as > 100 µM (inactive)

Looking up Cc1ccnc(NC(=S)Nc2cccc(Cl)c2)c1 , I found its GI50 recorded as > 100 µM (inactive)

Continuing:
Looking up C=C1CC[C@@H]2C(C)(C)C(O)CCC2(C)C1COc1ccc2ccc(=O)oc2c1 (stereo not given in full) , I found its GI50 recorded as 16.3 µM (inactive)

----------
Tested on: CAKI-1
Test: NCI tumour cell line growth inhibition, 48 h
The source made the active and inactive calls. Rule as the data show it: active = GI50 up to about 1.1 µM and inactive = higher.
Recorded GI50, one value per entry.

In the examples that follow, each entry is paired with its recorded GI50.
Looking up COc1c(-c2nc3ccc(N4CCN(C)CC4)cc3[nH]2)cc(OC)c2[nH]c(COC(C)=O)nc12 , I found its GI50 recorded as > 100 µM (inactive)

Looking up CCCCCCCCCCCCCCCCc1c(O)nc(NN)nc1C(=O)OC , I found its GI50 recorded as > 50 µM (inactive)

Looking up CCOC(=O)c1csc(NC(=O)CN2CCCCC2)n1 , I found its GI50 recorded as > 100 µM (inactive)

Continuing:
Looking up O=C1c2ccccc2-c2c1c(-c1ccc(O)cc1O)nc1ccc3ccccc3c21 , I found its GI50 recorded as > 100 µM (inactive)

Looking up Cc1ccc(SSCCCCS(=O)O)cc1 , I found its GI50 recorded as 18.9 µM (inactive)

Looking up O=C1Nc2ccccc2/C1=C1/Nc2ccccc2/C1=N\OCCOC1OCC(O)C(O)C1O (centres undefined) , I found its GI50 recorded as 6.78 µM (inactive)

Looking up CSc1cc(C(C)(C)C)ccc1C(O)c1ccc(C(C)(C)C)cc1SC , I found its GI50 recorded as 11.3 µM (inactive)

Looking up O=C1CC2CC3OC3[C@H]3c4cc5c(cc4C(=O)N1C23)OCO5 (some centres undefined) , I found its GI50 recorded as > 100 µM (inactive)

Looking up CCOC(=O)c1cc2cc(CSc3ccccc3)ccc2oc1=O , I found its GI50 recorded as > 100 µM (inactive)

----------
Recorded GI50, one value per entry.
Test system: MDA-N
Assay: NCI tumour cell line growth inhibition, 48 h
The source made the active and inactive calls. Rule as the data show it: active = GI50 up to about 1.1 µM and inactive = higher.

In the examples that follow, each entry is paired with its recorded GI50.
GET /values?item= CC(=O)OCC(OC(C)=O)C(OC(C)=O)C(OC(C)=O)C(/C=N\Nc1nc2ccccc2c(=O)[nH]1)OC(C)=O (stereo unspecified) &system= MDA-N returns GI50: > 100 µM (inactive)

GET /values?item= N#CC(NNC(=O)c1ccccc1O)c1c(O)ccc2ccccc12 (stereo unspecified) &system= MDA-N returns GI50: 5.16 µM (inactive)

GET /values?item= COc1ccc(/C=N\NC(=O)Nc2cccc3ccccc23)cc1 &system= MDA-N returns GI50: 2.7 µM (inactive)

GET /values?item= CCN(CC)/C(Sc1ccccc1)=C(\C(Cl)=C(Cl)Cl)[N+](=O)[O-] &system= MDA-N returns GI50: 16.9 µM (inactive)

GET /values?item= Cc1cc(C)c(-n2[nH]c(=O)n(C)c2=O)c(C)c1 &system= MDA-N returns GI50: > 100 µM (inactive)

Continuing:
GET /values?item= O=c1[nH]c(=O)n(C2CC(O)C(CO)O2)cc1/N=N/NCCc1ccccc1 (stereo unspecified) &system= MDA-N returns GI50: > 100 µM (inactive)

GET /values?item= Fc1cc(C2=Nn3c(COc4ccccc4Cl)nnc3S/C2=C\c2ccc(Cl)cc2)c(Cl)cc1Cl &system= MDA-N returns GI50: 2.23 µM (inactive)

GET /values?item= O=C1c2ccccc2-c2c1c(-c1ccc(O)cc1O)nc1ccc3ccccc3c21 &system= MDA-N returns GI50: > 100 µM (inactive)

GET /values?item= CC(C)(C)N(Cc1ccoc1)C(=O)/C=C\[S+]([O-])c1ccccc1 (stereo unspecified) &system= MDA-N returns GI50: 11.5 µM (inactive)

----------
Tested on: ACHN
Experiment: NCI tumour cell line growth inhibition, 48 h
Calls of active or inactive are those of the source. Rule as the data show it: active = GI50 up to about 1.1 µM and inactive = higher.
property.name: GI50

In the examples that follow, each entry is paired with its recorded GI50.
Looking up CCOc1ccc(/N=N/c2c(-c3ccccc3)nn(C(=O)CC(=O)Nc3ccccc3Cl)c2-c2ccccc2)cc1 , I found its GI50 recorded as 33.3 µM (inactive)

Looking up COC(=O)/C=C1/OC(c2ccccc2)=C(Cl)C1=O , I found its GI50 recorded as 17.7 µM (inactive)

Looking up NCCSc1nc(-c2ccccc2)c(-c2ccccc2)o1 , I found its GI50 recorded as > 100 µM (inactive)

Looking up CC1(C)C2CCC3=C(CCC4(C)C5C[C@](C)(C(=O)O)CC[C@]5(C)CC[C@]34C)[C@@]2(C)CC[C@@H]1O (stereo partly specified) , I found its GI50 recorded as 12.1 µM (inactive)

Looking up CCc1cccc(C)c1NC(=O)C(=O)CC(=O)c1ccc(Cl)s1 , I found its GI50 recorded as > 100 µM (inactive)

Now turn to the next compound.
Looking up CCc1nc(N)c2nc(-c3cccs3)oc2n1 , I found its GI50 recorded as 36.4 µM (inactive)

----------
Test system: COLO 205
Test: NCI tumour cell line growth inhibition, 48 h
Calls of active or inactive are those of the source. Rule as the data show it: active = GI50 up to about 1.1 µM and inactive = higher.
property.name: GI50

In the examples that follow, each entry is paired with its recorded GI50.
Looking up COC12c3ccccc3-c3ccccc3C1[C@H]1C(=O)OC(=O)[C@H]12 (stereo partly drawn) , I found its GI50 recorded as > 10 µM (inactive)

Looking up Nc1[nH]c(=O)[nH]c(=O)c1Cc1cccc(Cl)c1 , I found its GI50 recorded as > 100 µM (inactive)

Now turn to the next compound.
Looking up CC/C(Cl)=N\OC(=O)Nc1ccc(OC)cc1 , I found its GI50 recorded as 2.11 µM (inactive)

----------
Test system: UACC-62
Assay: NCI tumour cell line growth inhibition, 48 h
The source made the active and inactive calls. Rule as the data show it: active = GI50 up to about 1.1 µM and inactive = higher.
Respond using exactly one of the listed classes: T for active, F for inactive

Worked examples, 2 compounds total:
Prompt: Would you mind telling me which call this test gave CC(C)C[C@H](NC(=O)[C@H](Cc1cccc2ccccc12)NS(=O)(=O)c1cccc2cccnc12)B(O)O ?
Completion: T

Prompt: Would you mind telling me which call this test gave CCOC(=N)CC(=O)Nc1ccccc1 ?
Completion: F

Continuing:
Prompt: Would you mind telling me which call this test gave O=C(Cc1nc2ccccc2s1)C(=O)Nc1ccccc1C(F)(F)F ?
Completion: F

----------
Test system: MDA-N
Test: NCI tumour cell line growth inhibition, 48 h
Calls of active or inactive are those of the source. Rule as the data show it: active = GI50 up to about 1.1 µM and inactive = higher.
Recorded GI50, one value per entry.

In the examples that follow, each entry is paired with its recorded GI50.
Looking up CCCCCCCCNC(=S)N/C=C1\C(=O)Oc2ccccc2C1=O , I found its GI50 recorded as 18.1 µM (inactive)

Looking up O=C1Nc2ccccc2/C1=C\c1c(Cl)n(-c2ccccc2)c2ccccc12 , I found its GI50 recorded as 1.14 µM (inactive)

Looking up CS/C(Nc1ccccc1)=C1\C(=O)N(c2ccccc2)N=C1C , I found its GI50 recorded as > 100 µM (inactive)

Looking up CC(=O)Nc1[nH]c(C#N)nc1C#N , I found its GI50 recorded as > 100 µM (inactive)

Looking up Cc1cc2[nH]c3c(C#N)c(-c4ccccc4)c(/N=N/c4cccc(C(F)(F)F)c4)c(=O)n3c2cc1C , I found its GI50 recorded as 28.3 µM (inactive)

Continuing:
Looking up O=C(O)c1ccccc1/N=N/c1c(O)c(S(=O)(=O)O)cc2cc(S(=O)(=O)O)ccc12 , I found its GI50 recorded as > 100 µM (inactive)

Looking up COc1cc(S(=O)(=O)Nc2ccc(-c3csc(N4C(=O)CSC4c4cccs4)n3)cc2)ccc1Cl (configuration not stated) , I found its GI50 recorded as 29.4 µM (inactive)
